Measured Target: Dual specificity protein kinase CLK3 (Homo sapiens, UniProt P49761); also: in the data inactive means no Kd found up to 30 µM
Sequence (P49761 whole entry): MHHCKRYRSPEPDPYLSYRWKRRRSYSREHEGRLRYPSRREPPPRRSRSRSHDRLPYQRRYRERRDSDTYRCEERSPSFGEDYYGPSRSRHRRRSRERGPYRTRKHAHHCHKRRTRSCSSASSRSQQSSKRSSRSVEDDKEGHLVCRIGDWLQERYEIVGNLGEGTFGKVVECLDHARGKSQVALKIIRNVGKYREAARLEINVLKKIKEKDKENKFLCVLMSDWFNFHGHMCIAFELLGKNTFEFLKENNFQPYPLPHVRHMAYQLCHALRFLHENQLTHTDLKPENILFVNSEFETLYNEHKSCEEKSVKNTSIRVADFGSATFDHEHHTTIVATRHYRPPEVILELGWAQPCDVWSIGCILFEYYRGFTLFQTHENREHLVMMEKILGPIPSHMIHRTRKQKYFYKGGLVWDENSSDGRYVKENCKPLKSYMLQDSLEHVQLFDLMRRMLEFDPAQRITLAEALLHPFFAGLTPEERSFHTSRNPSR
Type: subcellular, K-562, COLO 205, SK-N-BE(2) and MV-4-11, Cell lysate
Test Parameters: read-out: Kd apparent
The source made the active and inactive calls.
Each entry below carries its reported Kd.

// below: answered compounds
{"Entry Smiles": "COc1cc(OC)c(/C=C/S(=O)(=O)Cc2ccc(OC)c(NCC(=O)O)c2)c(OC)c1", "Measured Target": "Dual specificity protein kinase CLK3 (Homo sapiens, UniProt P49761)", "Result": "0.04 µM"}
{"Entry Smiles": "Cc1ccc(NC(=O)c2ccc(CN3CC[C@H](N(C)C)C3)c(C(F)(F)F)c2)cc1Nc1nccc(-c2cncnc2)n1", "Measured Target": "Dual specificity protein kinase CLK3 (Homo sapiens, UniProt P49761)", "Result": "> 30 µM (inactive)"}
{"Entry Smiles": "O=C1NC(=O)/C(=C/c2ccc3nccc(-c4ccncc4)c3c2)S1", "Measured Target": "Dual specificity protein kinase CLK3 (Homo sapiens, UniProt P49761)", "Result": "> 30 µM (inactive)"}
{"Entry Smiles": "CNC(=O)c1cc(Oc2ccc(NC(=O)Nc3ccc(Cl)c(C(F)(F)F)c3)c(F)c2)ccn1", "Measured Target": "Dual specificity protein kinase CLK3 (Homo sapiens, UniProt P49761)", "Result": "> 30 µM (inactive)"}
{"Entry Smiles": "COC(=O)N[C@@H](C)CNc1nccc(-c2cn(C(C)C)nc2-c2cc(Cl)cc(NS(C)(=O)=O)c2F)n1", "Measured Target": "Dual specificity protein kinase CLK3 (Homo sapiens, UniProt P49761)", "Result": "> 30 µM (inactive)"}

Name the recorded Kd for CN1CC[C@@H](c2c(O)cc(O)c3c(=O)cc(-c4ccccc4Cl)oc23)[C@@H]1CO .
> 30 µM (inactive)

Name the recorded Kd for CNC(=O)CN1CCC(Oc2cc3c(Nc4cccc(Cl)c4F)ncnc3cc2OC)CC1 .
> 30 µM (inactive)

Name the recorded Kd for CC(=O)Nc1cccc(-n2c(=O)n(C3CC3)c(=O)c3c(Nc4ccc(I)cc4F)n(C)c(=O)c(C)c32)c1 .
> 30 µM (inactive)

---

Measured Target: AarF domain-containing protein kinase 1 (Homo sapiens, UniProt Q86TW2); also: in the data inactive means no Kd found up to 30 µM
Sequence (Q86TW2 whole entry, the tested form may be a part): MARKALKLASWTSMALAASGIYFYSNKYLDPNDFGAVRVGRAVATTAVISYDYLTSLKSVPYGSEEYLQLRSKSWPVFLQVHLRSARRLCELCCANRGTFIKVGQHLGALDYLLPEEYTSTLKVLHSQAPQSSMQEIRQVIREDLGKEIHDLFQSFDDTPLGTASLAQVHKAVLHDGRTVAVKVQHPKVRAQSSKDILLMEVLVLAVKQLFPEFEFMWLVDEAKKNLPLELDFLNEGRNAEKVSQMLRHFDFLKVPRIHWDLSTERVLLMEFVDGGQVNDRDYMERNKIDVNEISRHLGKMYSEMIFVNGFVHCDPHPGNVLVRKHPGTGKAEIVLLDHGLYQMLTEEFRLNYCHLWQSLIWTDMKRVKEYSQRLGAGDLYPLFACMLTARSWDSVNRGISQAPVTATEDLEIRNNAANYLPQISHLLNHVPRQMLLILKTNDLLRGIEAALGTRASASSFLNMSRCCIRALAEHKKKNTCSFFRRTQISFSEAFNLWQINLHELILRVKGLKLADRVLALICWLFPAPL
The source made the active and inactive calls.
Select the matching outcome among TRUE for active, FALSE for inactive

Known results for compounds:
{"Compound": "CN1CC[C@@H](c2c(O)cc(O)c3c(=O)cc(-c4ccccc4Cl)oc23)[C@@H]1CO", "Category": "FALSE"}
{"Compound": "Cc1ccc(-n2nc(C(C)(C)C)cc2NC(=O)NCc2cc(F)ccc2Oc2ccc3c(cnn3CCO)c2)cc1 [PEXMETINIB]", "Category": "FALSE"}

Returns: the outcome recorded for CN(C)C(=O)c1cc2cnc(Nc3ccc(N4CCNCC4)cn3)nc2n1C1CCCC1 [RIBOCICLIB] in this assay.
FALSE

Returns: the outcome recorded for Nc1nc(N)c2nc(-c3cccc(O)c3)c(-c3cccc(O)c3)nc2n1 [TG100-115] in this assay.
FALSE

Returns: the outcome recorded for CCc1cnn2c(NCc3ccc[n+]([O-])c3)cc(N3CCCC[C@H]3CCO)nc12 [DINACICLIB] in this assay.
FALSE

Returns: the outcome recorded for CN1CCN(c2ccc3nc(-c4c(N)c5c(F)cccc5[nH]c4=O)[nH]c3c2)CC1 [DOVITINIB] in this assay.
FALSE

Returns: the outcome recorded for Cc1cc2c(F)c(Oc3ncnn4cc(OC[C@@H](C)OC(=O)[C@H](C)N)c(C)c34)ccc2[nH]1 [BRIVANIB ALANINATE] in this assay.
FALSE

Returns: the outcome recorded for CC(=O)Nc1cccc(-n2c(=O)n(C3CC3)c(=O)c3c(Nc4ccc(I)cc4F)n(C)c(=O)c(C)c32)c1 [TRAMETINIB] in this assay.
FALSE

Returns: the outcome recorded for CNC(=O)c1ccc(-c2cnc3ncc(Cc4ccc5ncccc5c4)n3n2)cc1F [CAPMATINIB] in this assay.
FALSE

Returns: the outcome recorded for CCn1c(=O)c(-c2cc[nH]n2)cc2c(C)nc(N)nc21 [VOXTALISIB] in this assay.
FALSE

Returns: the outcome recorded for COc1cc(N2CCC(N3CCN(C)CC3)CC2)ccc1Nc1ncnc(Nc2ccccc2S(=O)(=O)C(C)C)n1 [ASP-3026] in this assay.
FALSE

---

Measured Target: Epithelial discoidin domain-containing receptor 1 (Homo sapiens, UniProt Q08345); also: in the data inactive means no Kd found up to 30 µM
Sequence (Q08345 whole entry, the tested form may be a part): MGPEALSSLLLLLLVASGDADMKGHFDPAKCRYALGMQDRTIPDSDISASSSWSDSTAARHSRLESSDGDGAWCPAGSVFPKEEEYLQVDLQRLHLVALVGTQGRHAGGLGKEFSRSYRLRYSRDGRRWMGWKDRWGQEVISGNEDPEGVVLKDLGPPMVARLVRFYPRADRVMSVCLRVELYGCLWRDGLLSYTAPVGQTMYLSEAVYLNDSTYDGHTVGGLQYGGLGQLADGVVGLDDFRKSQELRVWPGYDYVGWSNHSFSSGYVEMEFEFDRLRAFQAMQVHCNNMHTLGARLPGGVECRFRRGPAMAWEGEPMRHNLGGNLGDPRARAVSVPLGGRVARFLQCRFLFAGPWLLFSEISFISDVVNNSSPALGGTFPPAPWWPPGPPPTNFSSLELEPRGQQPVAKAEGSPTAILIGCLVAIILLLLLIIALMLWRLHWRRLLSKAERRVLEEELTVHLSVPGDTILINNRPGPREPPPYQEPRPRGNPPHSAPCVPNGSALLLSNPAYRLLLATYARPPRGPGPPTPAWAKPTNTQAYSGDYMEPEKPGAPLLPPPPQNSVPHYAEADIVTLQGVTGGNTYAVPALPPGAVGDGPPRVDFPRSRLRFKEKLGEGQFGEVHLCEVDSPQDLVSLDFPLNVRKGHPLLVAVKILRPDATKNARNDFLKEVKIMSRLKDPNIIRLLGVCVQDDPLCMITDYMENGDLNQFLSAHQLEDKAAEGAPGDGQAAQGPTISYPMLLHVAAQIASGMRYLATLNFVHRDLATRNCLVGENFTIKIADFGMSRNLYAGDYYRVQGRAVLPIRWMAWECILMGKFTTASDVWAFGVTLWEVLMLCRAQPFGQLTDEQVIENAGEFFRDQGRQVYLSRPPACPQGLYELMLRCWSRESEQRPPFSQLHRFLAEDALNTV
Activity calls are given as the source filed them.
Select the matching outcome among 1 for active, -1 for inactive

{"Entry Smiles": "CCn1c(=O)c(-c2cc[nH]n2)cc2c(C)nc(N)nc21", "Category": -1}
{"Entry Smiles": "CN(C)C(=O)c1cc2cnc(Nc3ccc(N4CCNCC4)cn3)nc2n1C1CCCC1", "Category": -1}
{"Entry Smiles": "CCCS(=O)(=O)Nc1ccc(F)c(C(=O)c2c[nH]c3ncc(-c4ccc(Cl)cc4)cc23)c1F", "Category": -1}
{"Entry Smiles": "Cc1cc(Nc2cc(N3CCN(C)CC3)nc(/C=C/c3ccccc3)n2)n[nH]1", "Category": 1}

Returns: the outcome recorded for CC(=O)Nc1cccc(-n2c(=O)n(C3CC3)c(=O)c3c(Nc4ccc(I)cc4F)n(C)c(=O)c(C)c32)c1 in this assay.
-1

Returns: the outcome recorded for Cc1cc([C@@H](C)Nc2ccccc2C(=O)O)c2nc(N3CCOCC3)cc(=O)n2c1 in this assay.
-1

Returns: the outcome recorded for N[C@@H]1CCCN(c2c(/C=C3\SC(=O)NC3=O)cccc2-c2ccccc2)C1 in this assay.
-1

Returns: the outcome recorded for CC(C)Nc1cc(-c2c[nH]c(C(=O)N[C@H](CO)c3cccc(Cl)c3)c2)c(Cl)cn1 in this assay.
-1

Returns: the outcome recorded for COc1cc(OC)c(/C=C/S(=O)(=O)Cc2ccc(OC)c(NCC(=O)O)c2)c(OC)c1 in this assay.
-1

Returns: the outcome recorded for C1=C/COCc2cc(ccc2OCCN2CCCC2)Nc2nccc(n2)-c2cccc(c2)COC/1 in this assay.
1

Returns: the outcome recorded for CO[C@H]1C[C@@H]2CC[C@@H](C)[C@@](O)(O2)C(=O)C(=O)N2CCCC[C@H]2C(=O)O[C@H]([C@H](C)C[C@@H]2CC[C@@H](OCCO)[C@H](OC)C2)CC(=O)[C@H](C)/C=C(\C)[C@@H](O)[C@@H](OC)C(=O)[C@H](C)C[C@H](C)/C=C/C=C/C=C/1C in this assay.
-1

Returns: the outcome recorded for CNC(=O)c1cc(Oc2ccc(NC(=O)Nc3ccc(Cl)c(C(F)(F)F)c3)c(F)c2)ccn1 in this assay.
1

Returns: the outcome recorded for C[C@@H](Nc1cc(F)cc(F)c1)c1cc(C(=O)N(C)C)cc2c(=O)cc(N3CCOCC3)oc12 in this assay.
-1

Returns: the outcome recorded for Cc1ccc(NC(=O)c2ccc(CN3CC[C@H](N(C)C)C3)c(C(F)(F)F)c2)cc1Nc1nccc(-c2cncnc2)n1 in this assay.
1

Returns: the outcome recorded for O=C1NC(=O)/C(=C/c2ccc3nccc(-c4ccncc4)c3c2)S1 in this assay.
-1

---

Measured Target: Bifunctional phosphoribosylaminoimidazole carboxylase/phosphoribosylaminoimidazole succinocarboxamide synthetase (Homo sapiens); also: in the data inactive means no Kd found up to 30 µM
Sequence (P22234 whole entry): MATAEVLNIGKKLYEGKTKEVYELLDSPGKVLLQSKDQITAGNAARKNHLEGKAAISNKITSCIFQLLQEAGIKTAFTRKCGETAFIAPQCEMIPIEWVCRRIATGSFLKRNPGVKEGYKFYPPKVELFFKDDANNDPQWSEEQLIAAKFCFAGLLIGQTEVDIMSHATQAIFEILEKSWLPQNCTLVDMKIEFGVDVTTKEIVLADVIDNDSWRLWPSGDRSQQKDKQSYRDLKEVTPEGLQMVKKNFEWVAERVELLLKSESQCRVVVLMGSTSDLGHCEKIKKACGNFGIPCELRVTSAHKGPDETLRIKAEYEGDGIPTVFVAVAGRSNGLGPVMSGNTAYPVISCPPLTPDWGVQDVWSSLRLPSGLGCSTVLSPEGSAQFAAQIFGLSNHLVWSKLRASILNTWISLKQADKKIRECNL
Calls of active or inactive are those of the source.
Readout Type: Kd

{"Entry Smiles": "Cn1cc(-c2ccc3nnc(C(F)(F)c4ccc5ncccc5c4)n3n2)cn1", "Kd": "> 30 µM (inactive)"}
{"Entry Smiles": "CCc1cnn2c(NCc3ccc[n+]([O-])c3)cc(N3CCCC[C@H]3CCO)nc12", "Kd": "> 30 µM (inactive)"}
{"Entry Smiles": "COc1cc(CCc2cc(NC(=O)c3ccc(N4C[C@@H](C)N[C@@H](C)C4)cc3)n[nH]2)cc(OC)c1", "Kd": "> 30 µM (inactive)"}

Name the recorded Kd for CNC(=O)c1cc(Oc2ccc(NC(=O)Nc3ccc(Cl)c(C(F)(F)F)c3)c(F)c2)ccn1 .
> 30 µM (inactive)
